- protocol.text: log P by HPLC (OECD Guideline 117), method [b] neutral range
- Format: physicochemical
- assay.context: HPLC, method [b] neutral range
metric.name: logP[b]

compound=O=c1n(-c2ccc(C(F)(F)F)c(SCC(F)(F)F)c2)nc(OCC(F)(F)F)n1C1CC1 metric_name=logP[b] observed_value=4.48
compound="CC1=C(C)C(=O)N(c2cc([S+]([O-])CC(F)(F)F)c(C)cc2F)C1=O (stereo not shown)" metric_name=logP[b] observed_value=2.49
compound=CCCCOc1nn(-c2cc(SCC(F)(F)F)c(C)cc2F)c(=O)n1C metric_name=logP[b] observed_value=3.95
compound=COC1=CC(=O)N(c2ccc(C)c(SCC(F)(F)F)c2)C1 metric_name=logP[b] observed_value=2.95
compound="Cc1cc(C)c([S+]([O-])CC(F)(F)F)cc1-n1nnn(C(C)C)c1=O (racemic)" metric_name=logP[b] observed_value=2.61
compound=C=C(C)CCOc1nn(-c2cc(SCC(F)(F)F)c(C)cc2F)c(=O)n1C1CC1 metric_name=logP[b] observed_value=4.33
compound=C=CCn1c(OC)nn(-c2cc(SCC(F)(F)F)c(C)cc2F)c1=O metric_name=logP[b] observed_value=3.24
